CC50 values, listed per item
- Tested on: CRFK cells
- protocol.summary: In vitro cytotoxicity MTS assay on CRFK cells
- Type: cell-based, feline
- condition.set: read-out: 50% cytotoxic concentration CC50, MTS assay

[
  {
    "compound": "N#CC1(C#N)C2C=CC(c3coc4cccc2c34)C1(C#N)C#N (centres unmarked)",
    "assay.system": "CRFK cells",
    "units.label": "µM",
    "qualifier": "=",
    "CC50": 23.2
  },
  {
    "compound": "CC(C)C[C@H](NC(=O)OCc1ccccc1)C(=O)N[C@@H](CC1CCNC1=O)C(O)S(=O)(=O)O (some centres unmarked) [GC376, reference compound]",
    "assay.system": "CRFK cells",
    "units.label": "µM",
    "qualifier": ">",
    "CC50": 200
  }
]

Source listed as paper PMC7476565.
